Values were extracted from patent EP1660440B1.

Measurement Protocol: physchem
Condition Summary: aqueous buffer, pH 7.4
For each of the compounds below, state its degraded at 1 h.
Please give a number only; it is taken to be in %.

**Q:** // returns reported degraded at 1 h for input "CC(C)C(=O)OCOC(=O)NC[C@H](CC(=O)O)c1ccc(Cl)cc1"
**A:** 0

**Q:** How about this compound: "CCCC(=O)OCOC(=O)NC[C@H](CC(=O)O)c1ccc(Cl)cc1"
**A:** 0

**Q:** How about this compound: CC(=O)OC(C)OC(=O)NC[C@H](CC(=O)O)c1ccc(Cl)cc1 (stereo partly drawn)
**A:** 1

----------
Measurement Protocol: in vitro
Condition Summary: human, s9
Parameter: metabolised at 1 h, 2 µM (%)
Please give a number only; it is taken to be in %.

**Q:** // returns reported metabolised at 1 h, 2 µM for input "CC(C)C(=O)OCOC(=O)NC[C@H](CC(=O)O)c1ccc(Cl)cc1"
**A:** 100

**Q:** How about this molecule: "CCCC(=O)OCOC(=O)NC[C@H](CC(=O)O)c1ccc(Cl)cc1"
**A:** 100

**Q:** How about this molecule: CC(=O)OC(C)OC(=O)NC[C@H](CC(=O)O)c1ccc(Cl)cc1 (stereo partly drawn)
**A:** 87
